// provenance: the supplement of paper PMC10567573

B1: NETO1 (parent)
chain: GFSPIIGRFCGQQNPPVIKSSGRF

Variants of: B1
Assay: protein stability index of a GFP-peptide fusion (GPS, HEK-293T) (PSI 1-6); higher = more stable;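 further: lentivirally expressed fusions sorted by FACS into six bins by GFP to DsRed ratio, PSI derived from sequencing read proportions per bin multiplied by bin number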
Conditions: c terminus: a fixed tail appended
experimental-endpoint: protein stability index
I only need the number, thanks.

variant-notation	experimental-endpoint	observed-value
S21N	protein stability index	2.09
R8I	protein stability index	2.43
K19W	protein stability index	1.78
C10D	protein stability index	2.71
I18W	protein stability index	2.1
R8N	protein stability index	2.04

Return protein stability index (reported value) for this variant: G1W 2.02

Complete the entry with protein stability index for G1D 1.6

Look up protein stability index of G22F and report it. 1.82

Entry S3D needs its protein stability index filled in; supply it. 2.41

Note down protein stability index recorded for I5K 2.75
